molecular target: ATP-dependent translocase ABCB1 (Homo sapiens, UniProt P08183); test: Modulation of human P-gp transfected in mouse L5178Y cells assessed as change in Rhodamine-123 efflux by measuring fluorescence activity ratio at 2 uM pretreated for 10 mins followed by Rhodamine-123 challenge for 20 mins by flow cytometry relative to parental mouse L5178Y cells; format: cell-based; conditions: 0.5 h, time 30 min
Sequence (P08183 whole entry): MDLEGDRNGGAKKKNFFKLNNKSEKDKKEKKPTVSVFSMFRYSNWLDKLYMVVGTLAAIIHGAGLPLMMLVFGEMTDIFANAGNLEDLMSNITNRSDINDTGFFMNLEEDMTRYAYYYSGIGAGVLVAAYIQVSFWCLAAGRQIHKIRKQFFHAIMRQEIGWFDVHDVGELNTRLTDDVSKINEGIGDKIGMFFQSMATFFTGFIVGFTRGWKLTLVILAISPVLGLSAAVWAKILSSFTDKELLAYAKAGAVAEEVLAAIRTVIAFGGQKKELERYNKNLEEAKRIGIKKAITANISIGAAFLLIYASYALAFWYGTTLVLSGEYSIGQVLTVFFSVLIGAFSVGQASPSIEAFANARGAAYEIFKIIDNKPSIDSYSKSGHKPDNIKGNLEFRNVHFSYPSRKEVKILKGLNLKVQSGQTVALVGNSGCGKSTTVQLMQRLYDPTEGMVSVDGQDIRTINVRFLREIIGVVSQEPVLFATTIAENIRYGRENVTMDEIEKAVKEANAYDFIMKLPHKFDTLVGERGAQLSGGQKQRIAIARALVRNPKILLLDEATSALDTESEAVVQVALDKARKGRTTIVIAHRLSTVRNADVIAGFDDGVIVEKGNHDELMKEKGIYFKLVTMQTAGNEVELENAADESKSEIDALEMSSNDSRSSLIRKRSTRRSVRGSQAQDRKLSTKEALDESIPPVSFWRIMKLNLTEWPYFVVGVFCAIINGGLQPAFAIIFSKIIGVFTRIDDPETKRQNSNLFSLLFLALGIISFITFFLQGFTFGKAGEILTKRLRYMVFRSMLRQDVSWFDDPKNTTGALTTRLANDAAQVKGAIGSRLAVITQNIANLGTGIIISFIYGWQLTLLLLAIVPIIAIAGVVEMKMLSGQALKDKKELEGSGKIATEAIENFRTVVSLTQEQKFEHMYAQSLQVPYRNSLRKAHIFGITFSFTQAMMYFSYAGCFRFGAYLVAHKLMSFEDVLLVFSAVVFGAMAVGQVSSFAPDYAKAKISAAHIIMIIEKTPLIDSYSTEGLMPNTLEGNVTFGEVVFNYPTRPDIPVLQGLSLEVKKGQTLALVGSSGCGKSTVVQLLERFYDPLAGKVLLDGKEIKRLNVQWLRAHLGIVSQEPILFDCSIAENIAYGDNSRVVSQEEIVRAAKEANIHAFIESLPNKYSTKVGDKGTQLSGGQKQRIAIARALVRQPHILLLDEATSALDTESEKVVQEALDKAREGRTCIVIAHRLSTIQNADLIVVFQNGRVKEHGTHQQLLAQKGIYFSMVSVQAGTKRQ
QUANTITY MEASURED: Ratio

Record excerpt, results attached:
[[record]]
compound = "C=C1CC[C@@H]2[C@](C)(COC(C)=O)[C@H](OC(C)=O)CC[C@@]2(C)[C@@H]1C/C=C1/C(=O)OC[C@H]1OC(C)=O"
recorded_value = 1.95

[[record]]
compound = "C=C1CC[C@@H]2[C@](C)(COC(C)=O)[C@H](OC(C)=O)CC[C@@]2(C)[C@@H]1C[C@H](NNC(=O)OCc1ccc(OC)cc1)C1=CCOC1=O"
recorded_value = 1.21

[[record]]
compound = "C=C1CC[C@@H]2[C@](C)(COC(C)=O)[C@H](OC(C)=O)CC[C@@]2(C)[C@@H]1C[C@H](NNC(=S)Nc1ccc(C)cc1)C1=CCOC1=O"
recorded_value = 18.86

[[record]]
compound = "C=C1CC[C@@H]2[C@](C)(CO)[C@H](O)CC[C@@]2(C)[C@@H]1C/C=C1/C(=O)OC[C@H]1O [ANDROGRAPHOLIDE]"
recorded_value = 0.96

[[record]]
compound = "C=C1CC[C@@H]2[C@](C)(COC(C)=O)[C@H](OC(C)=O)CC[C@@]2(C)[C@@H]1C[C@H](NNC(=S)Nc1ccccc1)C1=CCOC1=O"
recorded_value = 7.9

[[record]]
compound = "C=C1CC[C@@H]2[C@](C)(COC(C)=O)[C@H](OC(C)=O)CC[C@@]2(C)[C@@H]1C[C@H](NNC(=O)c1ccc(N)cc1)C1=CCOC1=O"
recorded_value = 0.48

[[record]]
compound = "C=C1CC[C@@H]2[C@](C)(COC(C)=O)[C@H](OC(C)=O)CC[C@@]2(C)[C@@H]1C[C@H](NNC(=S)N(C)C)C1=CCOC1=O"
recorded_value = 58.18

[[record]]
compound = "C=C1CC[C@@H]2[C@](C)(COC(C)=O)[C@H](OC(C)=O)CC[C@@]2(C)[C@@H]1C[C@H](NNC(=S)NCc1ccccc1)C1=CCOC1=O"
recorded_value = 1.71


a = C=C1CC[C@@H]2[C@](C)(COC(C)=O)[C@H](OC(C)=O)CC[C@@]2(C)[C@@H]1C[C@H](NNC(=S)NCCN1CCOCC1)C1=CCOC1=O
b = C=C1CC[C@@H]2[C@](C)(COC(C)=O)[C@H](OC(C)=O)CC[C@@]2(C)[C@@H]1C[C@H](NNc1ccc(Br)cn1)C1=CCOC1=O
c = C=C1CC[C@@H]2[C@](C)(COC(C)=O)[C@H](OC(C)=O)CC[C@@]2(C)[C@@H]1C[C@H](NNC(=O)c1ccc(Cl)cc1)C1=CCOC1=O
Thanks in advance: please rank these 3 entries by Ratio, highest to lowest. Form field (ranking): labels in requested order.
b, c, a

1 = C=C1CC[C@@H]2[C@](C)(COC(C)=O)[C@H](OC(C)=O)CC[C@@]2(C)[C@@H]1C[C@H](NNC(=O)c1ccc(C(F)(F)F)cc1)C1=CCOC1=O
2 = C=C1CC[C@@H]2[C@](C)(COC(C)=O)[C@H](OC(C)=O)CC[C@@]2(C)[C@@H]1C[C@H](NNC(=S)Nc1cccc2ccccc12)C1=CCOC1=O
Could you kindly indicate whether 1 or 2 has the higher Ratio value? I would appreciate it if you answered with the label of your choice.
2
(2: 14.29, 1: 2.27)

---

biological target: ATP-dependent translocase ABCB1 (Homo sapiens); experiment: Modulation of human P-gp transfected in mouse L5178Y cells assessed as change in Rhodamine-123 efflux by measuring fluorescence activity ratio at 2 uM pretreated for 10 mins followed by Rhodamine-123 challenge for 20 mins by flow cytometry relative to parental mouse L5178Y cells; format: cell-based; details: 0.5 h, time 30 min
QUANTITY MEASURED: Ratio

Record excerpt, results attached:
[[record]]
cpd_smiles = "C=C1CC[C@@H]2[C@](C)(COC(C)=O)[C@H](OC(C)=O)CC[C@@]2(C)[C@@H]1C[C@H](NNC(=S)NCc1ccco1)C1=CCOC1=O"
system_under_test = "ATP-dependent translocase ABCB1 (Homo sapiens)"
recorded_value = 1.27

[[record]]
cpd_smiles = "C=C1CC[C@@H]2[C@](C)(COC(C)=O)[C@H](OC(C)=O)CC[C@@]2(C)[C@@H]1C[C@H](NNC(=O)c1cccs1)C1=CCOC1=O"
system_under_test = "ATP-dependent translocase ABCB1 (Homo sapiens)"
recorded_value = 1.89

[[record]]
cpd_smiles = "C=C1CC[C@@H]2[C@](C)(COC(C)=O)[C@H](OC(C)=O)CC[C@@]2(C)[C@@H]1C[C@H](NNC(=O)c1cccnc1)C1=CCOC1=O"
system_under_test = "ATP-dependent translocase ABCB1 (Homo sapiens)"
recorded_value = 0.32


A = C=C1CC[C@@H]2[C@](C)(COC(C)=O)[C@H](OC(C)=O)CC[C@@]2(C)[C@@H]1C[C@H](NNC(=S)NC1CCCCC1)C1=CCOC1=O
B = C=C1CC[C@@H]2[C@](C)(COC(C)=O)[C@H](OC(C)=O)CC[C@@]2(C)[C@@H]1C[C@H](NNC(=S)Nc1ccc(CC)cc1)C1=CCOC1=O
C = C=C1CC[C@@H]2[C@](C)(COC(C)=O)[C@H](OC(C)=O)CC[C@@]2(C)[C@@H]1C[C@H](NNC(=S)NC(C)(C)C)C1=CCOC1=O
Thanks in advance: please rank these 3 entries by Ratio, highest to lowest. Form field (ranking): labels in requested order.
B, A, C
(B: 61.3, A: 18.13, C: 1.2)

---

tested on: L5178Y; experiment: Antiproliferative activity against mouse L5178Y cells assessed as reduction in cell viability incubated for 72 hrs by MTT assay; type: functional, cell-based
QUANTITY MEASURED: IC50 (µM)
Respond numerically; units are µM and should not be typed.

Record excerpt, results attached:
[[record]]
cpd_smiles = "C=C1CC[C@@H]2[C@](C)(COC(C)=O)[C@H](OC(C)=O)CC[C@@]2(C)[C@@H]1C[C@H](NNC(=O)c1ccco1)C1=CCOC1=O"
unit_abbreviation = "µM"
recorded_value = 11.1

[[record]]
cpd_smiles = "C=C1CC[C@@H]2[C@](C)(COC(C)=O)[C@H](OC(C)=O)CC[C@@]2(C)[C@@H]1C[C@H](NNC(=S)NCc1ccco1)C1=CCOC1=O"
unit_abbreviation = "µM"
recorded_value = 50.1

[[record]]
cpd_smiles = "C=C1CC[C@@H]2[C@](C)(COC(C)=O)[C@H](OC(C)=O)CC[C@@]2(C)[C@@H]1C[C@H](NNC(=O)c1cccs1)C1=CCOC1=O"
unit_abbreviation = "µM"
recorded_value = 15.5


Query compound follows.
Would you kindly share the measured IC50 for C=C1CC[C@@H]2[C@](C)(COC(C)=O)[C@H](OC(C)=O)CC[C@@]2(C)[C@@H]1C[C@H](NNC(=O)c1cccnc1)C1=CCOC1=O ?
12.5
